TEST_DETAILS: Relative hydrophobicity as RP-HPLC retention time
Type: physicochemical
STUDY_CONDITIONS: chromatographic, Phenomenex Luna C18 4 μm 150 × 4.6 mm, linear AB gradient 1% acetonitrile/min, 0.3 mL/min, A water 0.1% TFA, B acetonitrile 0.1% TFA, 25 °C
Where no end group is shown, it is not given here.
Known tR, RP-HPLC retention time (measure of overall hydrophobicity) of a selection of substances
Numbers only; they are read as min.

Below, 4 substances whose answers are already recorded.
[[record]]
substance = "Ac-RWLRRWLRWWRR-NH2 [8c]"
measurement = 41.20

[[record]]
substance = "Ac-KWIKKWIKWWKK-NH2 [7d]"
measurement = 38.75

[[record]]
substance = "Ac-RWARRWARWWRR-NH2 [6c]"
measurement = 34.61

[[record]]
substance = "Ac-RWIRRWIRWWRR-NH2 [7c]"
measurement = 40.63


Looking for the measured tR, RP-HPLC retention time (measure of overall hydrophobicity) of KWLKKWLKWWKK-NH2 [8b] , can you help? 33.41

Looking for the measured tR, RP-HPLC retention time (measure of overall hydrophobicity) of Ac-KWLKKWLKWWKK-NH2 [8d] , can you help? 39.25

Looking for the measured tR, RP-HPLC retention time (measure of overall hydrophobicity) of RWARRWARWWRR-NH2 [6a] , can you help? 30.42

Looking for the measured tR, RP-HPLC retention time (measure of overall hydrophobicity) of Ac-KWAKKWAKWWKK-NH2 [6d] , can you help? 32.81

Looking for the measured tR, RP-HPLC retention time (measure of overall hydrophobicity) of KWAKKWWKWWKK-NH2 [6e] , can you help? 29.87

Looking for the measured tR, RP-HPLC retention time (measure of overall hydrophobicity) of RWIRRWIRWWRR-NH2 [7a] , can you help? 33.93

Looking for the measured tR, RP-HPLC retention time (measure of overall hydrophobicity) of KWAKKWAKWWKK-NH2 [6b] , can you help? 28.98

Looking for the measured tR, RP-HPLC retention time (measure of overall hydrophobicity) of KWLKKWWKWWKK-NH2 [8e] , can you help? 34.10

Looking for the measured tR, RP-HPLC retention time (measure of overall hydrophobicity) of KWIKKWIKWWKK-NH2 [7b] , can you help? 32.23

Looking for the measured tR, RP-HPLC retention time (measure of overall hydrophobicity) of RWLRRWLRWWRR-NH2 [8a] , can you help? 34.99

Hello, the source for this data is paper PMC9841524, in case you need it.
